Tested on: MDA-MB-435 melanoma
Test: NCI-60 one-dose screen, 48 h
Conditions: 10 µM unless noted
Compounds without any hit were thinned out: in the full panel of roughly 83,000, 20% have a hit. Active and inactive are the calls of the source. Rule for the calls: active = growth percent below 10; inactive = the rest.
Parameter call: string, one of active, inactive

Use the examples below as a reference point.
O=C1CSC(c2ccccc2)N1c1ccccc1 (configuration not stated): inactive
O=C(CC12CC3CC(CC(C3)C1)C2)NCCOCCOCCOCCNC(=O)c1cc2c(o1)C(=O)c1ccccc1C2=O: active
CCN(CC)CC(O)CNc1c2ccc(Cl)cc2nc2ccc(OC)cc12 (configuration not stated): active
Cc1cc(-c2ccc(N(C)C)cc2)c2sc(=O)[nH]c2n1: active
COc1ccc(/C=C2\COc3ccc(O)c(O)c3C2=O)c(OC)c1: inactive

How did this test come out for "O=C1c2cccc3c(-c4ccc(-c5nc6c7ccccc7c7ccccc7c6[nH]5)cc4)ccc(c23)C(=O)N1CCN1CCNCC1" ?
inactive

How did this test come out for "CC(C)(C)N1CC(OC(N)=O)C1" ?
inactive

How did this test come out for "CC(C)c1ccc(NC(=O)Cc2ccc(Nc3ncnc4cc(-c5cnn(CCN(C)C)c5)ccc34)cc2)cc1" ?
active

How did this test come out for "CN(CCCCCCCCNc1ccnc2ccccc12)Cc1ccc(-c2ccc(-c3ccc(C#N)cc3)s2)cc1" ?
active

How did this test come out for "Cc1ccc(NC(=O)C(Cl)Cl)cc1" ?
inactive

How did this test come out for "N#Cc1c(Oc2ccc([N+](=O)[O-])cc2)nc2sc3cc(Cl)ccc3n2c1=N" ?
inactive

How did this test come out for "N=C(N)c1ccc(-c2ccc(-c3ccc(Cl)c(Cl)c3)o2)cc1" ?
active
